experiment: Cytotoxicity against mouse J774A1 cells after 72 hrs by MTT assay; type: cell-based, J774.A1
Parameter Measured: CC50 at 72 h (µM)
Record the value in µM, omitting the unit from your answer.

What does the record list as CC50 at 72 h for Cc1cc(Sc2nnc3c4ccccc4n(C)c3n2)nc(N2CCN(C)CC2)n1 ?
29.2

Continue with CCN1CCN(c2nc(Sc3nnc4c5ccccc5n(C)c4n3)nc(N3CCN(CC)CC3)n2)CC1
93.2

Now consider CCCCNc1nc(C)cc(Sc2nnc3c4ccccc4n(C)c3n2)n1 .
88.4

Thanks! And CC(C)Nc1nc(NC(C)C)nc(Sc2nnc3c4ccccc4n(C)c3n2)n1 ?
64.5

Item: Cc1cc(Sc2nnc3c4ccccc4n(C)c3n2)nc(NC(C)C)n1
109

* * *

assay: Cytotoxicity against mouse J774A1 cells after 72 hrs by MTT assay; assay type: cell-based, J774.A1
Provide the reported CC50 at 72 h of each item.
Please state the figure in µM; there is no need to write the unit.

Which CC50 at 72 h reading was recorded for the compound CCN1CCN(c2nc(C)cc(Sc3nnc4c5ccccc5n(C)c4n3)n2)CC1 ?
28.1

Continue with CCCCNc1nc(NCCCC)nc(Sc2nnc3c4ccccc4n(C)c3n2)n1
17.1

Would you kindly repeat that for Cn1c2ccccc2c2nnc(Sc3nc(N4CCCCC4)nc(N4CCCCC4)n3)nc21 ?
227

Same for N=C(N)c1ccc(OCCCCCOc2ccc(C(=N)N)cc2)cc1 [PENTAMIDINE]
52.8

Thanks! And Cc1cc(Sc2nnc3c4ccccc4n(C)c3n2)nc(N2CCCCC2)n1 ?
173

* * *

Provide the recorded IC50 for the entries that follow.
test system: Leishmania donovani; assay: Antileishmanial activity against Leishmania donovani (MHOM/IN/Dd8) amastigote infected in mouse J774 cells assessed as after 72 hrs by luminometry; format: functional, organism-based; conditions: MHOM/IN/Dd8, J774, 72 h
Write the value in µM as a bare number.

State the recorded IC50 for this entry: Cc1cc(Sc2nnc3c4ccccc4n(C)c3n2)nc(N2CCN(C)CC2)n1
57.8

Then what about the compound CC(C)Nc1nc(NC(C)C)nc(Sc2nnc3c4ccccc4n(C)c3n2)n1 ?
17.4

Then this compound: N=C(N)c1ccc(OCCCCCOc2ccc(C(=N)N)cc2)cc1
20.4

Field entry: CCN1CCN(c2nc(C)cc(Sc3nnc4c5ccccc5n(C)c4n3)n2)CC1
26.3

What would you report for Cn1c2ccccc2c2nnc(Sc3nc(N4CCCCC4)nc(N4CCCCC4)n3)nc21 ?
4.01

Also CCCCNc1nc(C)cc(Sc2nnc3c4ccccc4n(C)c3n2)n1 ?
18.3

Continue with Cc1cc(Sc2nnc3c4ccccc4n(C)c3n2)nc(N2CCCCC2)n1
25.7

Now this one: Cc1cc(Sc2nnc3c4ccccc4n(C)c3n2)nc(NC(C)C)n1
29.6

Field entry: CCN1CCN(c2nc(Sc3nnc4c5ccccc5n(C)c4n3)nc(N3CCN(CC)CC3)n2)CC1
15.5
